Molecular target: Recombinant human his-tagged IGF 1R extracellular domain protein (human) (UniProt P08069)
Assay: SPR, captured IgG, IGF-1R ECD-his analyte, dissociation pH 6
A collection of binders and their measured koff
readout name: koff (s⁻¹)

>  <binder>
VRDN-02558 (antibody, V domains shown) VH: EVQLVQSGGGLVKPGGSLRLSCAASGFTFSSFHMHWVRQAPGKGLEWISVIHTRGATYYADSVKGRFTISRDNAKNSLYLQMNSLRAEDTAVYYCARLGNFYYGMDVWGQGTTVTVSS VL: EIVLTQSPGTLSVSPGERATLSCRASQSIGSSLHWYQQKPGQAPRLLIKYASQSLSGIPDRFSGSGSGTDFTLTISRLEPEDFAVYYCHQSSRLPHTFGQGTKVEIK

>  <readout name>
koff

>  <reading>
0.00017

$$$$
>  <binder>
VRDN-02521 (antibody, V domains shown) VH: EVQLVQSGGGLVKPGGSLRLSCAASGFTFSSFAMHWVRQAPGKGLEWISVIDTRGATYYADSVKGRFTISRDNAKNSLYLQMNSLRAEDTAVYYCARLGNHYYGMDVWGQGTTVTVSS VL: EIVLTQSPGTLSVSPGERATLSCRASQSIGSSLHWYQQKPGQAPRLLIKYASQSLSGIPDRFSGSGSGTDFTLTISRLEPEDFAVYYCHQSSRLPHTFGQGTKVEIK

>  <readout name>
koff

>  <reading>
1e-06

$$$$
>  <binder>
VRDN-02516 (antibody, V domains shown) VH: EVQLVQSGGGLVKPGGSLRLSCAASGFTFSSFAMHWVRQAPGKGLEWISVIDTRGATYYADSVKGRFTISRDNAKNSLYLQMNSLRAEDTAVYYCHRLGNFYYGMDVWGQGTTVTVSS VL: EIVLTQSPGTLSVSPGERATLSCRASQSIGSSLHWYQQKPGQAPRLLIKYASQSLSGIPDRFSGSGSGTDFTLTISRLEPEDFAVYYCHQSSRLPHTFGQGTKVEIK

>  <readout name>
koff

>  <reading>
0.00196

$$$$
